system: FMC63; assay: CD19 variant binding to anti-CD19 antibody FMC63 (score); conditions: Table 1A, CD19 single mutants (positions of SEQ ID NO:2)
Sequence (as listed by the source): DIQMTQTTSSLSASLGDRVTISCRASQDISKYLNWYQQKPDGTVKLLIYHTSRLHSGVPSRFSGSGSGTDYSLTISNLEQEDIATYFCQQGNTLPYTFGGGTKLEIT
Sequence (as listed by the source): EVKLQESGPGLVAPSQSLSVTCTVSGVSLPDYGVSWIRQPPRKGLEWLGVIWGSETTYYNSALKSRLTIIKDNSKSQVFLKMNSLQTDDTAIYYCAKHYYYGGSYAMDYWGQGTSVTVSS
Parameter FMC63 Binding Score: see the listing below.
measuredEndpoint: FMC63 Binding Score

1. G269L: CD19 variant (protein) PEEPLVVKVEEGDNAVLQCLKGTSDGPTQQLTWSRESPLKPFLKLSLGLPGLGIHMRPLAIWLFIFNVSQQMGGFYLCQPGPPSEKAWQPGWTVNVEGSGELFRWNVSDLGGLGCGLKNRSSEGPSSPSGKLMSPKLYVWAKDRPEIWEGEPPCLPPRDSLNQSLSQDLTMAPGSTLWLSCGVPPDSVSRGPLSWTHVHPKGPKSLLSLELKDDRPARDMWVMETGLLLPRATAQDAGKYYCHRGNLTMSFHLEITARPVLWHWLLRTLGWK    6.1 ± .4
2. L59G: CD19 variant (protein) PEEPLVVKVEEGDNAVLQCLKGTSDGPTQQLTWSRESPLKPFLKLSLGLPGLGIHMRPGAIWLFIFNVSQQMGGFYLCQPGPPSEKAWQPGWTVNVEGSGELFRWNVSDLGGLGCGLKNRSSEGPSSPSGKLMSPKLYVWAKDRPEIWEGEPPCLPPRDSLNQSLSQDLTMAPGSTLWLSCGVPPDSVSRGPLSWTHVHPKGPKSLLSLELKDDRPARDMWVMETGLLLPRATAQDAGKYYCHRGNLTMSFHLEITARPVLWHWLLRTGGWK    6.5 ± .3
